- Measurement Target: ATP-dependent translocase ABCB1 (Homo sapiens, UniProt P08183)
- Sequence (P08183 whole entry): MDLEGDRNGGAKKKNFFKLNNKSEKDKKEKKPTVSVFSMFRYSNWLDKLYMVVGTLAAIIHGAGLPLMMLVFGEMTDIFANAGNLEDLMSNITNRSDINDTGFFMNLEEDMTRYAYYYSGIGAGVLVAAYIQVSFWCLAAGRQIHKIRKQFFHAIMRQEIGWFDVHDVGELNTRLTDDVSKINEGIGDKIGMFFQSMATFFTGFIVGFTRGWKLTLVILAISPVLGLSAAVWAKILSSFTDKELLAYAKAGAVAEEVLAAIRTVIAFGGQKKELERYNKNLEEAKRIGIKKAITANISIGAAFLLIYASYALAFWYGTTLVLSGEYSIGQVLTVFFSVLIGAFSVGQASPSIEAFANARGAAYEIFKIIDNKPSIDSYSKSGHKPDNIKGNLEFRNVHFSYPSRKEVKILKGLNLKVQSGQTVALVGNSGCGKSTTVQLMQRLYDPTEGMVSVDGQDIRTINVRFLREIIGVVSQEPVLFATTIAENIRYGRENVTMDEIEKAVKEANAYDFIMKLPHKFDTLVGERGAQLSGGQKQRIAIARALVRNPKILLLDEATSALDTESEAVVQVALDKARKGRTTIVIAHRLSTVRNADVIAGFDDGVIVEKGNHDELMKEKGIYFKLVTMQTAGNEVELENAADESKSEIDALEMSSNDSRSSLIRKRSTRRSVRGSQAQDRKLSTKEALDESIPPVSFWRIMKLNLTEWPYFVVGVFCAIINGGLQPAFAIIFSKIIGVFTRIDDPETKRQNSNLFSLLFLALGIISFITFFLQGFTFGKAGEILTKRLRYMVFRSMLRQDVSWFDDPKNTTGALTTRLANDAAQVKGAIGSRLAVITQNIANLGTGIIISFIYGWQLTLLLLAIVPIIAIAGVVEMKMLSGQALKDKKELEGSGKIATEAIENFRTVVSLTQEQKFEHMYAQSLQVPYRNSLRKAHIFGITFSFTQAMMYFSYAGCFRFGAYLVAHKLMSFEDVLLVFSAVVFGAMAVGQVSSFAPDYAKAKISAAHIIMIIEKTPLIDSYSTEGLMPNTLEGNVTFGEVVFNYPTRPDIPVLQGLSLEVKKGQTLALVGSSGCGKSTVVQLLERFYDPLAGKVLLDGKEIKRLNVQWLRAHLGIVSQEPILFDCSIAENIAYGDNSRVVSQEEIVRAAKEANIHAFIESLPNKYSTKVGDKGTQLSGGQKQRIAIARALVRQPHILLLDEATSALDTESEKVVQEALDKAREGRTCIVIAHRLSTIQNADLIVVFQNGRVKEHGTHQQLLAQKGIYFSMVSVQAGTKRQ
- Assay Notes: Pgp transport inhibitory activity at 5 uM was measured by JC-1 accumulation assay method using JC-1 as substrate
- Assay type: functional
Mark false (0) for Relative JC-1 accumulation values under 50, and true (1) for everything at or above.

Problem: Reported Relative JC-1 accumulation at or above 50? `CCOC(=O)COc1cc(O)c2c(=O)cc(-c3ccc(OC)c(OCC(=O)N4CCN(Cc5ccc(OC)c(OC)c5OC)CC4)c3)oc2c1`
Solution: true (1)

Problem: Can `CCOC(=O)COc1cc(-c2cc(=O)c3c(O)cc(OCC(=O)N4CCN(Cc5ccc(OC)c(OC)c5OC)CC4)cc3o2)ccc1OC` be said to have Relative JC-1 accumulation at or above 50?
Solution: true (1)

Problem: Is Relative JC-1 accumulation for `COc1ccc(-c2cc(=O)c3c(OCC(=O)N4CCN(Cc5ccc(OC)c(OC)c5OC)CC4)cc(O)cc3o2)cc1O` at or above 50?
Solution: false (0)

Problem: Is Relative JC-1 accumulation at least 50? Consider COc1ccc(C2CC(=O)c3c(O)cc(OCC(=O)N4CCN(Cc5cccc(OC)c5OC)CC4)cc3O2)cc1O (configuration not stated)
Solution: false (0)

Problem: Given the entry COc1ccc(C2CC(=O)c3c(O)cc(OCC(=O)N4CCN(Cc5ccc(OC)c(OC)c5OC)CC4)cc3O2)cc1OC(C)=O (configuration not stated) , answer whether its Relative JC-1 accumulation meets or surpasses 50.
Solution: true (1)

Problem: Does the molecule `COc1ccc(-c2cc(=O)c3c(O)cc(OCC(=O)N4CCN(Cc5ccc(OC)c(OC)c5OC)CC4)cc3o2)cc1OCC(=O)N1CCN(Cc2ccc(OC)c(OC)c2OC)CC1` have recorded Relative JC-1 accumulation that is 50 or more?
Solution: true (1)

====

- Test system: K562
- Assay Notes: Modulation factor: IC50(DOX alone)/IC50(DOX+modulator)
- Format: functional, Homo sapiens
Measurement Label: Modulation factor

Problem: Can you share its Modulation factor? I mean this compound: `CCOC(=O)COc1cc(O)c2c(=O)cc(-c3ccc(OC)c(OCC(=O)N4CCN(Cc5ccccc5Cl)CC4)c3)oc2c1`
Solution: 2

Problem: Would you mind telling me what Modulation factor value was observed for COc1ccc(C2CC(=O)c3c(O)cc(OCC(=O)N4CCN(Cc5ccc(OC)c(OC)c5OC)CC4)cc3O2)cc1O (configuration not stated) ?
Solution: 11

Problem: Record request: Modulation factor value, item COc1ccc(C2CC(=O)c3c(O)cc(OCC(=O)N4CCN(Cc5cccc(OC)c5OC)CC4)cc3O2)cc1O (configuration not stated)
Solution: 4

Problem: I'd like to know its Modulation factor. The compound in question is `CCOC(=O)COc1cc(-c2cc(=O)c3c(O)cc(OCC(=O)N4CCN(Cc5cccc(OC)c5OC)CC4)cc3o2)ccc1OC`
Solution: 5

Problem: # get_value(readout='Modulation factor', item= COc1ccc(C2CC(=O)c3c(O)cc(OCC(=O)N4CCN(Cc5ccc(OC)c(OC)c5)CC4)cc3O2)cc1O (configuration not stated) )
Solution: 4

Problem: For the compound shown here, `CCOC(=O)COc1cc(-c2cc(=O)c3c(O)cc(OCC(=O)N4CCN(Cc5ccccc5)CC4)cc3o2)ccc1OC` , give the reported Modulation factor.
Solution: 4

Problem: Which value of Modulation factor has been reported for `COc1ccc(-c2cc(=O)c3c(O)cc(OCC(=O)N4CCN(Cc5ccc(OC)c(OC)c5OC)CC4)cc3o2)cc1OCC(=O)N1CCN(Cc2ccc(OC)c(OC)c2OC)CC1` in the records?
Solution: 1

Where do these numbers come from? They come from ChEMBL document CHEMBL1132167.
